Item-by-item account of LDH (OD)
# target-entity: lactate dehydrogenase (LDH)
# test: phage ELISA, 405 nm; LDH coated

binder: DGI-2-40F-4-F6 (peptide, not shown: large carriers) peptide: SYRNFAMQSSLQVRRGSVVEDGTCWWEGVRCYSGAAAGAPVPYPDPLEPRP
readout-units: OD
LDH (OD): 1
--
binder: DGI-2-40F-4-E1130 (peptide, not shown: large carriers) peptide: VCRLCRLCRFSMRCGGLSLVLGSAAAFFCEVFVGFCVAAAGAPVPYPDPLEPRP
readout-units: OD
LDH (OD): 0.9
--
binder: DGI-2-40F-3-B6 (peptide, not shown: large carriers) peptide: QSNVWVLVGVIMQGVWYQRQHYCVYVMLLSDQVSVLLAVAAAAGAPVPYPDPLEPRP
readout-units: OD
LDH (OD): 0.8
--
binder: DGI-2-40F-4-F12 (peptide, not shown: large carriers) peptide: GLYRRAGDASVGFSRWGRFDCQVYFSVECLLGSSWGGYSAAAGAPVPYPDPLEPRP
readout-units: OD
LDH (OD): 0.9
--
binder: DYKGRTMTSPIMSALPVYDRLHGAIGSRGQNMDAAAGAPVPYPDPLEPRP (peptide, not shown: large carriers) [DGI-2-20C-3-B3]
readout-units: OD
LDH (OD): 0.9
--
binder: LSRIWRGVIESAREVESRGIAAAGAPVPYPDPLEPRP (peptide, not shown: large carriers) [DGI-2-20F-3-B1]
readout-units: OD
LDH (OD): 0.9

Source listed as patent US7056679.
